Source listed as the supplement of paper PMC12042874.

Experiment: amyloid nucleation score (Sup35N fusion, yeast selection) (log enrichment); library NNK2; higher = more nucleation; inactive = no reads after selection;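 further: zero at mode of non-aggregating sequences after 7 days selection at 30°C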
Rule: amyloid nucleation score under 0.4 gives FALSE, otherwise TRUE.

NEYYAFFRLSADSASS	TRUE
TGDMQVAVYCVILGGFSMGM	TRUE
FPYIFIWFYGSVGLWRRETL	FALSE
ALSSFT	FALSE

Quick check: does CARMGASLWI have amyloid nucleation score greater than or equal to 0.4? FALSE

Quick check: does DEGSNIGHGSLDIHRDCALL have amyloid nucleation score greater than or equal to 0.4? FALSE

Quick check: does LLSDLFCIFVLRKSRSGGWS have amyloid nucleation score greater than or equal to 0.4? TRUE

* * *

Experiment: amyloid nucleation score (Sup35N fusion, yeast selection) (log enrichment); library NNK1; higher = more nucleation; inactive = no reads after selection
Result type: amyloid nucleation score

Worked examples, 10 substances total:
LYCRNRCRACCKRFTFK	inactive
GGDSQCVLTGFWYCSTWGKG	6.44
DRMLLMVCIVWNRFVKGFPH	inactive
RVRILITYM	1.18
LIIKEFITLLSPCWELLRIR	0.901
TLCQCKLT	-0.286
FRSAKAIMLEVN	0.048
NRLNTTDWYSI	-0.342
IIIEVSQTDTV	-0.292
QCRERLYPHPGLI	1.01

Now for another entry.
Give the value of amyloid nucleation score reported for the following: PSSHWIAPNFVVN inactive

* * *

Assay: amyloid nucleation score (Sup35N fusion, yeast selection) (log enrichment); library NNK1; higher = more nucleation; inactive = no reads after selection
Result type: amyloid nucleation score

VLYMVEACLVWGIRQSESAV	0.393
QGSIHY	inactive
YWKSIRPILIEC	inactive

* * *

Assay: amyloid nucleation score (Sup35N fusion, yeast selection) (log enrichment); library NNK3; higher = more nucleation; inactive = no reads after selection
Result type: amyloid nucleation score

Worked examples, 5 substances total:
QGLPVSVSFVGEIYLLLF	2.32
MTSSVP	inactive
EYHDALEYVVGDKAIFWSGD	inactive
NVYLKLTA	inactive
DICRFNWMFHF	1.3

Give the value of amyloid nucleation score reported for the following: LAGCNPLASARFVWVI inactive

Give the value of amyloid nucleation score reported for the following: STVYSRHIKTDLTNCCKFFY -0.657

Give the value of amyloid nucleation score reported for the following: MPFIPHLDGS inactive

Give the value of amyloid nucleation score reported for the following: IILTIGRMGLFNMAK -0.152

Give the value of amyloid nucleation score reported for the following: WHCLTVFILKYEVGFCSSLR inactive

Give the value of amyloid nucleation score reported for the following: YVNFFVKVSV inactive

* * *

Assay: amyloid nucleation score (Sup35N fusion, yeast selection) (log enrichment); library NNK1; higher = more nucleation; inactive = no reads after selection
Rule: amyloid nucleation score under 0.4 gives f, otherwise t.

Solved entries (count: 5):
IFFSCQVGYSAIARDARWTR	t
SYLFWDRCYSA	f
FGESPH	t
TSWFAFANWVLPSFHYTPVP	t
NSFRAAHWSEMVPAELGRSV	f

Pending substance:
Quick check: does WRIMNHNVLLMLVRLGSILL have amyloid nucleation score greater than or equal to 0.4? t

* * *

Test: amyloid nucleation score (Sup35N fusion, yeast selection) (log enrichment); library NNK2; higher = more nucleation; inactive = no reads after selection
Would you mind classing the entries by amyloid nucleation score? Ranges: bucket A: < -0.1; bucket B: ≥ -0.1 and < 0.6; bucket C: ≥ 0.6

RMLADGVTLVPCWALQL	bucket B
FASLCTW	bucket A

Category of ELRPIHIFKFFT , please. bucket A

Category of NQFLMVWSDIDVRKDVRFLH , please. bucket A

Category of LANNSERMAAQDEVYSNCRM , please. bucket A

Category of FACRWFQSWSLRYLFPELTL , please. bucket A

Category of PFFLMISAVISHHNEHRHTM , please. bucket C

* * *

Experiment: amyloid nucleation score (Sup35N fusion, yeast selection) (log enrichment); library NNK2; higher = more nucleation; inactive = no reads after selection
Would you mind classing the entries by amyloid nucleation score? Ranges: bucket A (below -0.07), bucket B (-0.07 to below 1), bucket C (1 or more)

Solved entries (count: 4):
NIAWTVDRYRKGSARGV	bucket C
EPGMKSRSNYMHGTKGEHHR	bucket A
NSRLLLTHRRISPSPWYVGV	bucket C
CNFLQDNVEGVCYNRFKDCL	bucket B

Category of MCTDFQC , please. bucket B

Category of GSSRLKGDGIVLVKCSWRYM , please. bucket C

Category of KKVFLTFLEFVFNAISGWWV , please. bucket A

Category of WYSVLSFDSFFWPWALLVVY , please. bucket A

Category of HKRCVITLLWADL , please. bucket B

* * *

Reported amyloid nucleation score values for a set of sequences
Assay: amyloid nucleation score (Sup35N fusion, yeast selection) (log enrichment); library NNK2; higher = more nucleation; inactive = no reads after selection
Respond numerically, and do not add a unit to the figure.

Worked examples, 5 sequences total:
TMWRVIGSVYFVKFFSATLG	-0.07
TMILCRKYNASWMIVARNDL	-0.311
LAGITWISSTVRDVSYMRRR	2.72
SFVMYRNSGRVCGMRVASEW	0.766
TLKLALEFLNEIYEEPVKCR	-1.36

Give the value of amyloid nucleation score reported for the following: GSLMRTFHILSIAHSTSWCM 0.381

Give the value of amyloid nucleation score reported for the following: NICITHPH 0.299

Give the value of amyloid nucleation score reported for the following: SRLRNYLKVLSD -0.474

Give the value of amyloid nucleation score reported for the following: GTRYSLCTRCG 0.766

* * *

Assay: amyloid nucleation score (Sup35N fusion, yeast selection) (log enrichment); library NNK3; higher = more nucleation; inactive = no reads after selection
Result type: amyloid nucleation score

ARLVAGCVMCHGSLWEMIRE	0.572
YRNVGHVCFDVEYPRVLFFA	inactive
ESASSYFLY	0.583
RKKLEGVFVRLFQFANPIVG	inactive
LCAYNSTWSACNWGFIHNSL	2.58

Give the value of amyloid nucleation score reported for the following: TFRFLSRLSRTLWAFSKGLC inactive

Give the value of amyloid nucleation score reported for the following: SCSLCWPIHRDFHMCTSSVC inactive

Give the value of amyloid nucleation score reported for the following: ILLFYLSLKRCSLQARGLDS -0.659

Give the value of amyloid nucleation score reported for the following: VNIGTIWETDKCMEIFCAAA inactive

Give the value of amyloid nucleation score reported for the following: YRVKPFKWKYARRRLVIRWV inactive

Give the value of amyloid nucleation score reported for the following: YGNLFSYAVMSRDLVSWGPV inactive

Give the value of amyloid nucleation score reported for the following: SAGDTDRRPVFH -0.058

Give the value of amyloid nucleation score reported for the following: TDISLCNLGKHKVLRGL inactive

Give the value of amyloid nucleation score reported for the following: LYKGSHWDQAFLSVWYLGVL inactive

Give the value of amyloid nucleation score reported for the following: LKSIYLLKWCPTSQLRTTSV inactive

Give the value of amyloid nucleation score reported for the following: EMLYTLIIVYLVNMYFCTQS inactive

Give the value of amyloid nucleation score reported for the following: GLNDHSLI inactive

Give the value of amyloid nucleation score reported for the following: SWYYLQFIFMDFMINFCVME inactive

Give the value of amyloid nucleation score reported for the following: SRQKINHQCCYKFCVVDYY 1.56

Give the value of amyloid nucleation score reported for the following: GRSSRCWGGMCRGGNLCEEF inactive

Give the value of amyloid nucleation score reported for the following: DSPMKLSALSHM -0.261

Give the value of amyloid nucleation score reported for the following: TYFRHYRKRSRSTSDLYLRL inactive

Give the value of amyloid nucleation score reported for the following: VCLLIRPID inactive

Give the value of amyloid nucleation score reported for the following: FLTHVHQINADAFYAIL 1.84

Give the value of amyloid nucleation score reported for the following: NASMNKYYVRFTFGNPHVLL 2.52

* * *

Experiment: amyloid nucleation score (Sup35N fusion, yeast selection) (log enrichment); library NNK1; higher = more nucleation; inactive = no reads after selection
Result type: amyloid nucleation score

YPPRAQDMTRSAQRKCQRGV	inactive
WSHADILV	inactive
IFYIYLRGLVMIVRRSMVIR	inactive

* * *

Reported amyloid nucleation score values for a set of substances
Assay: amyloid nucleation score (Sup35N fusion, yeast selection) (log enrichment); library NNK2; higher = more nucleation; inactive = no reads after selection
Respond numerically, and do not add a unit to the figure.

SMNVDTPCSGRWV	-0.249
TSLTQDLEMVLSFNFCMGLA	-0.158
GKYMEDYNAENQNPSTMMES	-0.01

Give the value of amyloid nucleation score reported for the following: CGMKTRQYCTMSRYVGRYVR 0.231

Give the value of amyloid nucleation score reported for the following: MDLLPNSGYGLRSDLRVLAE 3.5

Give the value of amyloid nucleation score reported for the following: DDLLIRYC -0.022

Give the value of amyloid nucleation score reported for the following: VHSSVRQMSDY 0.168

Give the value of amyloid nucleation score reported for the following: WDRTTDSSFQVRKYQSENFL 0.092

Give the value of amyloid nucleation score reported for the following: LLLNLMLVHTSMTFVRIKLR 3.13

Give the value of amyloid nucleation score reported for the following: PQLSKVLGWNYRCVNLSIW 4.93

Give the value of amyloid nucleation score reported for the following: KCCILMLKA 0.745
